test: Half life in Sprague-Dawley rat at 4 mg/kg, iv by HPLC/MS analysis; assay type: ADME, organism-based; settings: in vivo
recorded.metric: half-life
Write down the value, and be sure its unit follows.

Task: Recorded half-life for Cc1cn(-c2cc(NC(=O)c3ccc4c(c3)CN(c3cncnc3)C[C@@H]4C)cc(C(F)(F)F)c2)cn1 , please?
Output: 1.5 h

* * *

Target: Muscle, skeletal receptor tyrosine-protein kinase (Homo sapiens)
Sequence (O15146 whole entry): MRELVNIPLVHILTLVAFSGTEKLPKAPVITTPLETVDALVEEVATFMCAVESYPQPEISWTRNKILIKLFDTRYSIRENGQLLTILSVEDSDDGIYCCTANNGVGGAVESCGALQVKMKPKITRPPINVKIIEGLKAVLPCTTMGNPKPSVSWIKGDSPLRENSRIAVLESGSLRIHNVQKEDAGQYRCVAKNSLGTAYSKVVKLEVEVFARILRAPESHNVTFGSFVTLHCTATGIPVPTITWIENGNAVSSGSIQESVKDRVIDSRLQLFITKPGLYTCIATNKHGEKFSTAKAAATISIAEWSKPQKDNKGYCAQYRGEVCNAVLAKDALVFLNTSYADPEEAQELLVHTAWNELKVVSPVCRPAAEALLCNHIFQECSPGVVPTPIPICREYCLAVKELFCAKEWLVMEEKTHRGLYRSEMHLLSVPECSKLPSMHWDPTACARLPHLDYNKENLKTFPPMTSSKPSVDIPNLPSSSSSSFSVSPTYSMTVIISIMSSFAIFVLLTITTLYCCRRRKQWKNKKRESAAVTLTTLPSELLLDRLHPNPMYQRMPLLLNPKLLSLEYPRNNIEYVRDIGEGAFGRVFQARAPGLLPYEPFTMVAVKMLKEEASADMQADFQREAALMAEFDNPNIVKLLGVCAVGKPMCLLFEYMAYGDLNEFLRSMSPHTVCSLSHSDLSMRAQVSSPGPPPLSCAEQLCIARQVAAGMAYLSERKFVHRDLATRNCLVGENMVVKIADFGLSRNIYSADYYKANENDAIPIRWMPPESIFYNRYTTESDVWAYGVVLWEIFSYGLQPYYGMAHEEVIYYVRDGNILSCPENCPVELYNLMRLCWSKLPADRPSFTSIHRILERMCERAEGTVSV
recorded.metric: Kd (nM)
State just the number; it will be interpreted in nM.

Task: Recorded Kd for Cc1cn(-c2cc(NC(=O)c3ccc4c(c3)CN(c3cncnc3)C[C@@H]4C)cc(C(F)(F)F)c2)cn1 , please?
Output: 530

* * *

experiment: Tmax in Sprague-Dawley rat at 20 mg/kg, po by HPLC/MS analysis; format: ADME, organism-based; details: in vivo
recorded.metric: Tmax (h)
State just the number; it will be interpreted in h.

Task: Recorded Tmax for Cc1cn(-c2cc(NC(=O)c3ccc4c(c3)CN(c3cncnc3)C[C@@H]4C)cc(C(F)(F)F)c2)cn1 , please?
Output: 1

* * *

test: AUC (0 to infinity) in ICR mouse at 1 mg/kg, iv measured after 5 mins to 24 hrs by HPLC/MS analysis; assay type: ADME, organism-based; design: dose 1 mg/kg, time infinity, route intravenous; details: in vivo
recorded.metric: AUC(0-inf)
Write down the value, and be sure its unit follows.

Task: Recorded AUC(0-inf) for Cc1cn(-c2cc(NC(=O)c3ccc4c(c3)CN(c3cncnc3)C[C@@H]4C)cc(C(F)(F)F)c2)cn1 , please?
Output: 1210 ng·h/mL
